inhibition at 1 µM by entry:
- targetUnderTest: panel of 255 wild-type kinases (Homo sapiens)
- testSummary: Kinase panel profiling at 1 µmol/L (MSA or IMAP), percentage inhibition
- Assay type: biochemical
- conditionDetails: kinase HIPK1; 1 µmol/L single concentration; read-out: %-inhibition at 1 µmol/L, HIPK1
# output: bare number, implied unit %

compound	measureUnit	inhibition at 1 µM
CO[C@]1(C(=O)N[C@@H](C)c2ccc(-n3cc(F)cn3)nc2)CC[C@H](c2nc(C)cc(Nc3cc(C)[nH]n3)n2)CC1 [pralsetinib]	%	13
C[C@H](Nc1ncnc2nc[nH]c12)c1cc2cccc(Cl)c2c(=O)n1-c1ccccc1 [duvelisib]	%	0.739
Cc1nc(NC(=O)N2CCC[C@H]2C(N)=O)sc1-c1ccnc(C(C)(C)C(F)(F)F)c1 [alpelisib]	%	9

Task: Entry under review: CCc1nc(C(N)=O)c(Nc2ccc(N3CCC(N4CCN(C)CC4)CC3)c(OC)c2)nc1NC1CCOCC1 [gilteritinib] . Reported inhibition at 1 µM?
Output: 71

====

- targetUnderTest: panel of 255 wild-type kinases (Homo sapiens, UniProt P29597)
- Sequence (P29597 whole entry): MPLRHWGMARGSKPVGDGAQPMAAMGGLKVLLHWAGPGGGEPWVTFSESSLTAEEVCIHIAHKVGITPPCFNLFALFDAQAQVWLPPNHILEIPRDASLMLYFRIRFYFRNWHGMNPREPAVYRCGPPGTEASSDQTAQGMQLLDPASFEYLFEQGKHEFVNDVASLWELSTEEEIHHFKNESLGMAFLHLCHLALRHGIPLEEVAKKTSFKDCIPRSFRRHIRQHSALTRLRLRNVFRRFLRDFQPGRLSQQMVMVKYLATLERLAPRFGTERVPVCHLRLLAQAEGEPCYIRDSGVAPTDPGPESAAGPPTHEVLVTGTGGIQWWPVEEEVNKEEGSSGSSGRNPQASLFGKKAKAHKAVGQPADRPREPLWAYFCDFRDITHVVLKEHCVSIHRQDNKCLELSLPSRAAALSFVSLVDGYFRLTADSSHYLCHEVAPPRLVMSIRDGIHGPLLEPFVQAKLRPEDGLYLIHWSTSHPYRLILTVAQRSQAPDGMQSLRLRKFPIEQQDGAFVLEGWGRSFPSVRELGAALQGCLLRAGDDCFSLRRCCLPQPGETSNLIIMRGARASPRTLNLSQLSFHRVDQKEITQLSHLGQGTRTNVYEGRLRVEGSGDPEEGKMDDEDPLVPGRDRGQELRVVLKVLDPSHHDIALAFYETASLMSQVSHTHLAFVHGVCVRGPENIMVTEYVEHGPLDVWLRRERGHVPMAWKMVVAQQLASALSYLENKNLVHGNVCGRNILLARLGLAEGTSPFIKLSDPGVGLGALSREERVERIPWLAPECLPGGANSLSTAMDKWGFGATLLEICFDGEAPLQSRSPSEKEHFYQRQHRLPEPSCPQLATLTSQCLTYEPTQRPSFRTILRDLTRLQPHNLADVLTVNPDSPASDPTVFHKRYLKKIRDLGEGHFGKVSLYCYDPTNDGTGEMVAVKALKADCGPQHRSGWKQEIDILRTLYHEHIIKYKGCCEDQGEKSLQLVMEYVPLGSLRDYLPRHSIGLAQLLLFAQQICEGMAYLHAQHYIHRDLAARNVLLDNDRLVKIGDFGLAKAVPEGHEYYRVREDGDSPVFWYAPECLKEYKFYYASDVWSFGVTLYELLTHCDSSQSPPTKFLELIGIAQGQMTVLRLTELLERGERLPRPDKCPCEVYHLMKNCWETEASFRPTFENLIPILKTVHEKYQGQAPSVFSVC
- testSummary: Kinase panel profiling at 1 µmol/L (MSA or IMAP), percentage inhibition
- Assay type: biochemical
- conditionDetails: kinase TYK2; 1 µmol/L single concentration; read-out: %-inhibition at 1 µmol/L, TYK2
metric: inhibition at 1 µM (%)
# output: bare number, implied unit %

compound	inhibition at 1 µM, %
Cc1nc(NC(=O)N2CCC[C@H]2C(N)=O)sc1-c1ccnc(C(C)(C)C(F)(F)F)c1	-4
CCN1C(=O)N(c2c(F)c(OC)cc(OC)c2F)Cc2cnc3[nH]c(CN4CCOCC4)cc3c21	-6.39

Task: Entry under review: Cn1cnc2c(F)c(Nc3ccc(Br)cc3Cl)c(C(=O)NOCCO)cc21 . Reported inhibition at 1 µM?
Output: -3

Task: Entry under review: C[C@H]1Oc2cc(cnc2N)-c2c(nn(C)c2C#N)CN(C)C(=O)c2ccc(F)cc21 . Reported inhibition at 1 µM?
Output: 5

Task: Entry under review: C=CC(=O)N1CCC([C@@H]2CCNc3c(C(N)=O)c(-c4ccc(Oc5ccccc5)cc4)nn32)CC1 . Reported inhibition at 1 µM?
Output: -2.32

Task: Entry under review: FC(F)(F)c1ccc(CNc2ccc(Cc3c[nH]c4ncc(Cl)cc34)cn2)cn1 . Reported inhibition at 1 µM?
Output: 19

Task: Entry under review: CCN1CCN(c2ccc(Nc3cc(N(C)C(=O)Nc4c(Cl)c(OC)cc(OC)c4Cl)ncn3)cc2)CC1 . Reported inhibition at 1 µM?
Output: -3

Task: Entry under review: CN1CCN(c2ccc(C(=O)Nc3n[nH]c4ccc(Cc5cc(F)cc(F)c5)cc34)c(NC3CCOCC3)c2)CC1 . Reported inhibition at 1 µM?
Output: 95

====

- System: 134 cancer cell lines
- testSummary: Cell viability assay (ATPlite, 72 hours), IC50 on cancer cell line panel
- conditionDetails: Homo sapiens, KG-1, read-out: IC50 in cell proliferation assay
metric: pIC50
In textbook form, pIC50 equals minus log to base ten of the concentration in mol/L.

compound	valueReported
C=CC(=O)N1CCC([C@@H]2CCNc3c(C(N)=O)c(-c4ccc(Oc5ccccc5)cc4)nn32)CC1	5.54

Let us move to another entry and its pIC50.
Task: Entry under review: C=CC(=O)N1CCC[C@@H](n2nc(-c3ccc(Oc4ccccc4)cc3)c3c(N)ncnc32)C1 . Reported pIC50?
Output: 5.87
